B1: library; numbered along this chain (parent)
chain: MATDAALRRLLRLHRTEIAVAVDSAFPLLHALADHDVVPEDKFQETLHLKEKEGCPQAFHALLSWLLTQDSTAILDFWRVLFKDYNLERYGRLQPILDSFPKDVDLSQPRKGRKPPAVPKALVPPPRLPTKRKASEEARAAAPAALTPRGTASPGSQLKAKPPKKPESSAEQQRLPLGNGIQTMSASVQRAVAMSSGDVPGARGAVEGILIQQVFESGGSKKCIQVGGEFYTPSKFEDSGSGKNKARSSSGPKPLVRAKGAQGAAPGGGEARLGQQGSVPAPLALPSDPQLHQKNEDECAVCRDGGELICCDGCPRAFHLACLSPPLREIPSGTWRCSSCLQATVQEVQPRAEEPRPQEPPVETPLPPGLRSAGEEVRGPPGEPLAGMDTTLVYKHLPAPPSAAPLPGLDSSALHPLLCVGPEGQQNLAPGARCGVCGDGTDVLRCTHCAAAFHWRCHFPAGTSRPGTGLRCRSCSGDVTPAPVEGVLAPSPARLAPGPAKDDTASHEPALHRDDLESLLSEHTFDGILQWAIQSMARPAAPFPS

# Variants of: B1
# Protocol description: AIRE transcriptional activation functional score (insulin promoter-GFP; nonsense median 0, synonymous median 1) (normalised score); higher = higher AIRE activity (more reporter activation)
# Cond: with insulin promoter-GFP reporter in HEK293
Endpoint name: AIRE transcriptional activation functional score
Provide a numeric answer; units are not to be included.

The variant identified as R174G registered its AIRE transcriptional activation functional score at 0.531

The variant identified as A186S registered its AIRE transcriptional activation functional score at 0.95

The variant identified as P233V registered its AIRE transcriptional activation functional score at 0.512

The variant identified as R79F registered its AIRE transcriptional activation functional score at 0.705

The variant identified as R127Y registered its AIRE transcriptional activation functional score at 0.503

The variant identified as P368L registered its AIRE transcriptional activation functional score at 1.01

The variant identified as A373K registered its AIRE transcriptional activation functional score at 1.02

The variant identified as H512P registered its AIRE transcriptional activation functional score at 1.09

The variant identified as A429Y registered its AIRE transcriptional activation functional score at 0.892

The variant identified as V226L registered its AIRE transcriptional activation functional score at 1.08

The variant identified as A343T registered its AIRE transcriptional activation functional score at 1.13

The variant identified as G263W registered its AIRE transcriptional activation functional score at 1.29

The variant identified as K50P registered its AIRE transcriptional activation functional score at -0.341

The variant identified as E375P registered its AIRE transcriptional activation functional score at 1.21

The variant identified as A352T registered its AIRE transcriptional activation functional score at 1.32

The variant identified as K164M registered its AIRE transcriptional activation functional score at 1.88

The variant identified as C302Q registered its AIRE transcriptional activation functional score at 0.705

The variant identified as N179W registered its AIRE transcriptional activation functional score at -2.31

The variant identified as Q189G registered its AIRE transcriptional activation functional score at 0.415

The variant identified as Q530Y registered its AIRE transcriptional activation functional score at 0.438

The variant identified as A496W registered its AIRE transcriptional activation functional score at 1.64

The variant identified as E376F registered its AIRE transcriptional activation functional score at 0.443

The variant identified as P398T registered its AIRE transcriptional activation functional score at 1.21

The variant identified as R473Y registered its AIRE transcriptional activation functional score at 1.64

The variant identified as Q290M registered its AIRE transcriptional activation functional score at 1.27

The variant identified as V420R registered its AIRE transcriptional activation functional score at 1.03

The variant identified as V118H registered its AIRE transcriptional activation functional score at 1.74

The variant identified as A19M registered its AIRE transcriptional activation functional score at 1.9

The variant identified as A73G registered its AIRE transcriptional activation functional score at -0.592

The variant identified as K245V registered its AIRE transcriptional activation functional score at 1.32

The variant identified as G263K registered its AIRE transcriptional activation functional score at 1.27

The variant identified as C434Y registered its AIRE transcriptional activation functional score at 0.0941

The variant identified as R132C registered its AIRE transcriptional activation functional score at -0.0301

The variant identified as D288N registered its AIRE transcriptional activation functional score at 0.786

The variant identified as H14S registered its AIRE transcriptional activation functional score at 0.00226

The variant identified as L97P registered its AIRE transcriptional activation functional score at 0.384

The variant identified as K245C registered its AIRE transcriptional activation functional score at 1

The variant identified as A404R registered its AIRE transcriptional activation functional score at 1.01

The variant identified as I74T registered its AIRE transcriptional activation functional score at -0.246

The variant identified as P166S registered its AIRE transcriptional activation functional score at 0.939

The variant identified as L106I registered its AIRE transcriptional activation functional score at -1.62

The variant identified as L210A registered its AIRE transcriptional activation functional score at 0.581

The variant identified as R471I registered its AIRE transcriptional activation functional score at 1.05

The variant identified as F318L registered its AIRE transcriptional activation functional score at 1.05

The variant identified as F215W registered its AIRE transcriptional activation functional score at 0.878

The variant identified as K42T registered its AIRE transcriptional activation functional score at -0.0654
